The entries below come with measured log10 IC50 values attached.
Biological target: Mouse EL (Mus musculus)
Sequence (Q9WVG5 21-500): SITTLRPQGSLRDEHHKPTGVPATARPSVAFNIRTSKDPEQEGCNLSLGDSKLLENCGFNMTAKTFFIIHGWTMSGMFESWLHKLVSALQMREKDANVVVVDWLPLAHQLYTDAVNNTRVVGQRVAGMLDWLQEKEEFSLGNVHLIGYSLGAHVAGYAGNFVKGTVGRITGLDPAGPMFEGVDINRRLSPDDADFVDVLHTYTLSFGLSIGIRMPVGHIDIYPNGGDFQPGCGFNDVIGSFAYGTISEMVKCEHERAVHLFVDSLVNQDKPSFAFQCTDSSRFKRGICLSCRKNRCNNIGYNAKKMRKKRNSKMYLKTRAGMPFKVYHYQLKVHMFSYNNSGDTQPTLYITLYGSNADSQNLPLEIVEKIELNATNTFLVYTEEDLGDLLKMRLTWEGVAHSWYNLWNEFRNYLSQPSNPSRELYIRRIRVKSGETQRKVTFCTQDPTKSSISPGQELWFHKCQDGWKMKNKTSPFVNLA
Assay: Endothelial Lipase Assay, cell surface lipase activity (mouse)
Settings: PLA1 substrate 10 μM, fluorescence reaction rate, several values in a cell are repeat determinations
Parameter value (number): base-10 log of IC50 in nM.

Recorded results for 2 compounds are shown here.
{"columns": ["compound", "recorded_result"],
 "data": [
  ["Cc1ccc(-c2nnc(CNC(=O)C(=O)CCCCCc3ccc(F)cc3)o2)cc1 [Compound 39]", 2.89],
  ["O=C(CCCCCCc1ccc(F)nc1)C(=O)NCc1nnc(-c2ccc(OCc3ccncc3)cc2)s1 [Compound 159]", 2.24]
]}

Then there is this compound:
Q: What does the record list as log10 IC50 for O=C(CCCCCOc1cccc(F)c1)C(=O)NCc1nnc(-c2ccc3c(c2)Oc2ccccc2O3)o1 [Compound 62] ?
Ans: 3.43

* * *

The entries below come with measured pIC50 values attached.
target: Mouse EL (Mus musculus, UniProt Q9WVG5); assay: Endothelial Lipase Assay, cell surface lipase activity (mouse); settings: PLA1 substrate 10 μM, fluorescence reaction rate, several values in a cell are repeat determinations
By convention, pIC50 is the negative base-10 log of a molar concentration.

Recorded results for 5 compounds are shown here.
{"columns": ["molecule_smiles", "pIC50"],
 "data": [
  ["O=C(CCCCCOc1ccccc1)C(=O)NCc1nnc(-c2cccc(Oc3ccccc3)c2)o1", 5.01],
  ["CN(C)CCNC(=O)c1ccc(-c2nnc(CNC(=O)C(=O)CCCCCCc3ccccc3)o2)cc1", 5.47],
  ["COC(=O)c1cccc(COc2ccc(-c3nnc(CNC(=O)C(=O)CCCCCCc4ccccc4)s3)cc2)c1", 7.43],
  ["O=C(CCCCCCc1ccccc1)C(=O)NCc1nnc(-c2ccc(OCc3cccc(Cl)c3)cc2)o1", 5.71],
  ["COc1cccc(OCCCCCC(=O)C(=O)NCc2nnc(-c3cccc(Oc4ccccc4)c3)o2)c1", 5.00]
]}

Q: What does the record list as pIC50 for O=C(CCCCCCc1ccccc1)C(=O)NCc1nnc(-c2ccc(Oc3cccc(Cl)c3)cc2)o1 ?
Ans: 6.44

Q: Again, but for O=C(CCCCCOc1cc(F)ccc1F)C(=O)NCc1nnc(-c2ccc(Oc3ccccc3)cc2)o1
Ans: 6.11

Q: Again, but for O=C(CCCCCCc1ccccc1)C(=O)NCc1nnc(-c2ccccc2F)o1
Ans: 5.76

Q: Again, but for O=C(CCCCCc1ccc(-c2ccccc2)cc1)C(=O)NCc1nnc(-c2ccc3ccccc3c2)o1
Ans: 5.18

Q: Again, but for O=C(CCCCCOc1ccc(F)cc1F)C(=O)NCc1nnc(-c2ccc(OCc3ccccc3)cc2)o1
Ans: 5.98

Q: Again, but for CC(=O)Nc1ccc(CCCCCCC(=O)C(=O)NCc2nnc(-c3ccc(OCc4cccc(F)c4)cc3)s2)cn1
Ans: 5.89

Q: Again, but for O=C(CCCCCOc1cc(F)cc(F)c1)C(=O)NCc1nnc(-c2ccc(OCc3ccccc3)cc2)o1
Ans: 6.26

Q: Again, but for O=C(CCCCCCc1ccccc1)C(=O)NCc1nnc(-c2ccc(Oc3ncccn3)cc2)o1
Ans: 6.15

Q: Again, but for O=C(CCCCCCc1ccccc1)C(=O)NCc1nnc(-c2ccc(OCc3ccc4ccccc4n3)cc2)o1
Ans: 6.63

Q: Again, but for O=C(CCCCCCc1ccccc1)C(=O)NCc1nnc(-c2ccc(F)cc2)o1
Ans: 5.99

Q: Again, but for O=C(CCCCCCc1ccccc1)C(=O)NCc1nnc(-c2ccc(OCc3ccc(Cl)cc3)cc2)o1
Ans: 4.48

* * *

biological target: UniProtKB Q9Y5X9; assay: Endothelial Lipase Assay, cell surface lipase activity (human); settings: cells expressing human EL, PLA1 substrate 10 μM, fluorescence reaction rate; several values in a cell are repeat determinations
The entries below come with measured IC50 values attached.
Answer in µM, number only, no unit symbol.

{"columns": ["molecule_smiles", "IC50 [µM]"],
 "data": [
  ["O=C(CCCCCCc1ccccc1)C(=O)NCc1nnc(-c2ccc(OCc3ccc(Cl)cc3)cc2)o1", 33.3],
  ["O=C(CCCCCOc1ccc(F)cc1F)C(=O)NCc1nnc(-c2ccc(Oc3ccccc3)cc2)o1", 0.432],
  ["N#Cc1ccc(C#CCCCCC(=O)C(=O)NCc2nnc(-c3ccccc3)o2)cc1", 3.47],
  ["CN(C)C(=O)c1cccc(COc2ccc(-c3nnc(CNC(=O)C(=O)CCCCCCc4ccccc4)s3)cc2)c1", 0.092],
  ["CN(Cc1ccccn1)c1ccc(-c2nnc(CNC(=O)C(=O)CCCCCCc3ccccc3)o2)cc1", 0.236]
]}

Q: What does the record list as IC50 for O=C(CCCCCOc1cccc(F)c1)C(=O)NCc1nnc(-c2ccc3ccccc3c2)o1 ?
Ans: 0.916

Q: Again, but for O=C(CCCCCOc1cccc(Cl)c1)C(=O)NCc1nnc(-c2ccc(Oc3ccccc3)cc2)s1
Ans: 0.604

Q: Again, but for Cc1ncsc1CCCCCCC(=O)C(=O)NCc1nnc(-c2ccc(OCc3ccncc3)cc2)s1
Ans: 0.809

* * *

Target: Mouse EL (Mus musculus, UniProt Q9WVG5)
Sequence (Q9WVG5 21-500): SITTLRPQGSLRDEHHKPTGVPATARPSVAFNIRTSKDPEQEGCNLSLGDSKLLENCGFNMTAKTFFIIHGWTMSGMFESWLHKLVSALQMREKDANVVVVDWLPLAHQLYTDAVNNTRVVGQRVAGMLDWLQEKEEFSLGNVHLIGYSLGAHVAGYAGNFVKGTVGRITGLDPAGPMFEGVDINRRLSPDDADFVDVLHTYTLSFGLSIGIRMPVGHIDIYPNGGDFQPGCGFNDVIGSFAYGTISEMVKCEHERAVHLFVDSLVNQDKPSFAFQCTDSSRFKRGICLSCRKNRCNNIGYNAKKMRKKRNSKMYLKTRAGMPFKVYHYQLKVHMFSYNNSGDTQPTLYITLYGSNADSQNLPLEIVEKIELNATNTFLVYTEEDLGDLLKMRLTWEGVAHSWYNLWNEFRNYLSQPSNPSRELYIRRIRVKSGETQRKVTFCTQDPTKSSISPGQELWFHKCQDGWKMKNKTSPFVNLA
Experiment: Endothelial Lipase Assay, cell surface lipase activity (mouse)
Settings: PLA1 substrate 10 μM, fluorescence reaction rate, several values in a cell are repeat determinations
The entries below come with measured IC50 values attached.
Answer in nM, number only, no unit symbol.

Q: Param readout = IC50; param system = Mouse EL (Mus musculus, UniProt Q9WVG5); param query = O=C(CCCCCOc1c(F)cccc1F)C(=O)NCc1nnc(-c2ccc(OCc3ccccc3)cc2)o1 ; response: value
Ans: 19900

Q: Again, but for N#Cc1cccc(COc2ccc(-c3nnc(CNC(=O)C(=O)CCCCCCc4ccccc4)s3)cc2)n1
Ans: 236

Q: Again, but for O=C(CCCCCCc1ccccc1)C(=O)NCc1nnc(-c2ccc(OCc3cccnc3)cc2)o1
Ans: 133

* * *

biological target: human endothelial lipase (EL) (Homo sapiens, UniProt Q9Y5X9); experiment: Endothelial Lipase Assay, cell surface lipase activity (human); conditions: cells expressing human EL, PLA1 substrate 10 μM, fluorescence reaction rate; several values in a cell are repeat determinations
Sequence (Q9Y5X9 21-500): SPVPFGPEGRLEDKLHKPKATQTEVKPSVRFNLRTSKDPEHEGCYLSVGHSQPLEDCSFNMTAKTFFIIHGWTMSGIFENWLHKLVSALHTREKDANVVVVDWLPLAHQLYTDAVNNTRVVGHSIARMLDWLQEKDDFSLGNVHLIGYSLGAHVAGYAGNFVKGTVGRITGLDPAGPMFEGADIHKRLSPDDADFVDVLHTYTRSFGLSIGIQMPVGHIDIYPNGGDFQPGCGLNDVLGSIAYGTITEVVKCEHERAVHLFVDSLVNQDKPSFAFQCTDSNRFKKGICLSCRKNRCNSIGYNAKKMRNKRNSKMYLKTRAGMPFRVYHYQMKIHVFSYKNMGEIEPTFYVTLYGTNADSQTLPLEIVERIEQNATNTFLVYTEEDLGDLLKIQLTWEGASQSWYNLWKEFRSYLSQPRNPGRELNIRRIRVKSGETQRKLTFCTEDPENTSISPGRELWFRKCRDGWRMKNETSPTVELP
So basically, if IC50 comes in under 700 nM it's rule met, and if it's 700 nM or more it's rule not met.

Example entries begin here.
{"columns": ["molecule_smiles", "assigned_category"],
 "data": [
  ["O=C(CCCCCOc1ccccc1)C(=O)NCc1nnc(-c2ccc3ccccc3c2)o1", "rule not met"],
  ["O=C(CCCCCCc1ccccc1)C(=O)NCc1nnc(-c2cccc(Cl)c2)o1", "rule met"],
  ["COc1cccc(CCCCCCC(=O)C(=O)NCc2nnc(-c3ccc(C)cc3)o2)c1", "rule met"],
  ["O=C(CCCCCCc1ccccc1)C(=O)NCc1nnc(-c2cccc(Oc3ccccc3)c2)o1", "rule not met"],
  ["O=C(CCCCC=Cc1ccccc1)C(=O)NCc1nnc(-c2ccc(Oc3ccccc3)cc2)o1", "rule not met"],
  ["O=C(CCCCCc1ccc(-c2ccccc2)cc1)C(=O)NCc1nnc(-c2ccc3ccccc3c2)o1", "rule not met"],
  ["O=C(CCCCCCc1ccccc1)C(=O)NCc1nnc(-c2ccc(OCc3ccnc(Cl)c3)cc2)s1", "rule met"],
  ["O=C(CCCCCCc1ccccc1)C(=O)NCc1nnc(-c2ccc(OCc3ccccc3F)cc2)s1", "rule met"]
]}

Q: Decide: IC50 of O=C(CCCCCCc1ccccc1)C(=O)NCc1nnc(-c2ccc(F)c(F)c2)o1 strictly below 700 nM?
Ans: rule met
